- measurementConditions: bacteroides thetaiotaomicron, 12 h, 2 µM
- Description: The drug is tested on Bacteroides thetaiotaomicron strain: 3731 for biotransformation. The drug concentrations were measured before and after a 12-h incubation by liquid-chromatography-coupled mass spectrometry (LC–MS)
measuredEndpoint: Bacterial Biotransformation

1. COc1ccccc1OCC(O)CN1CCN(CC(=O)Nc2c(C)cccc2C)CC1 (configuration not stated); Compound NOT metabolized
2. CC1=C(CC(=O)O)c2cc(F)ccc2/C1=C\c1ccc([S+](C)[O-])cc1 (configuration not stated); Compound NOT metabolized
3. CC(=O)Nc1ccc(OC(C)=O)cc1 [DIACETAMATE]; Compound metabolized
4. CC(CN(C)C)CN1c2ccccc2CCc2ccccc21.O=C(O)/C=C\C(=O)O (configuration not stated) [TRIMIPRAMINE MALEATE]; Compound NOT metabolized
5. COc1cc2nc(N3CCN(C(=O)C4COc5ccccc5O4)CC3)nc(N)c2cc1OC.CS(=O)(=O)O (configuration not stated) [DOXAZOSIN MESYLATE]; Compound NOT metabolized
6. COc1ccnc(C[S+]([O-])c2nc3ccc(OC(F)F)cc3[nH]2)c1OC (configuration not stated); Compound metabolized
7. CCOC(=O)[C@H](CCc1ccccc1)N[C@@H](C)C(=O)N1Cc2ccccc2C[C@H]1C(=O)O; Compound metabolized
8. CN(C)CCOC(C)(c1ccccc1)c1ccccn1.O=C(O)CCC(=O)O (configuration not stated) [DOXYLAMINE SUCCINATE]; Compound NOT metabolized
9. CCN(CC)CCOCCOC(=O)C1(c2ccccc2)CCCC1.O=C(O)CC(O)(CC(=O)O)C(=O)O [CARBETAPENTANE CITRATE]; Compound metabolized
10. O=C(O)COCCN1CCN(C(c2ccccc2)c2ccc(Cl)cc2)CC1 (configuration not stated); Compound metabolized
11. CC(=O)OCC(CCn1cnc2cnc(N)nc21)COC(C)=O; Compound metabolized
12. CC(=O)O[C@]1(C(C)=O)CC[C@H]2[C@@H]3C=C(C)C4=CC(=O)CC[C@]4(C)[C@H]3CC[C@@]21C [MEGESTROL ACETATE]; Compound metabolized
13. Nc1nc(NC2CC2)c2ncn([C@H]3C=C[C@@H](CO)C3)c2n1.Nc1nc(NC2CC2)c2ncn([C@H]3C=C[C@@H](CO)C3)c2n1.O=S(=O)(O)O [ABACAVIR SULFATE]; Compound NOT metabolized
14. CN(C)CCc1c[nH]c2ccc(Cn3cncn3)cc12.O=C(O)c1ccccc1 [RIZATRIPTAN BENZOATE]; Compound NOT metabolized
15. Cc1cc(C)cc(OCC2CNC(=O)O2)c1 (configuration not stated); Compound NOT metabolized
16. C=CC[C@@H]1/C=C(\C)C[C@H](C)C[C@H](OC)[C@H]2O[C@@](O)(C(=O)C(=O)N3CCCC[C@H]3C(=O)O[C@H](/C(C)=C/[C@@H]3CC[C@@H](O)[C@H](OC)C3)[C@H](C)[C@@H](O)CC1=O)[C@H](C)C[C@@H]2OC.O; Compound NOT metabolized
17. COc1ccccc1N1CCN(CC(O)COc2cccc3ccccc23)CC1 (configuration not stated); Compound NOT metabolized
18. CC(N)C12CC3CC(CC(C3)C1)C2 (configuration not stated); Compound NOT metabolized
19. CC(C)NCC(O)COc1ccc(COCCOC(C)C)cc1.CC(C)NCC(O)COc1ccc(COCCOC(C)C)cc1.O=C(O)/C=C/C(=O)O (configuration not stated) [BISOPROLOL FUMARATE]; Compound NOT metabolized
20. CC(C)OC(=O)C(C)(C)Oc1ccc(C(=O)c2ccc(Cl)cc2)cc1 [FENOFIBRATE]; Compound NOT metabolized
21. CC(C)(C)NC[C@H](O)COc1nsnc1N1CCOCC1.O=C(O)/C=C\C(=O)O [TIMOLOL MALEATE]; Compound NOT metabolized
22. CC(CCc1ccccc1)NCC(O)c1ccc(O)c(C(N)=O)c1 (configuration not stated); Compound NOT metabolized
23. C[C@]12C=CC(=O)C=C1CC[C@@H]1[C@@H]2C(=O)C[C@@]2(C)[C@H]1CC[C@]2(O)C(=O)CO; Compound NOT metabolized
24. O=C(Nc1ccccc1)OCC(CN1CCCCC1)OC(=O)Nc1ccccc1 (configuration not stated); Compound NOT metabolized
25. CC1Cc2ccccc2N1NC(=O)c1ccc(Cl)c(S(N)(=O)=O)c1 (configuration not stated) [INDAPAMIDE]; Compound NOT metabolized
26. CCCCC(=O)N(Cc1ccc(-c2ccccc2-c2nnn[nH]2)cc1)[C@H](C(=O)O)C(C)C; Compound metabolized
27. C#C[C@]1(O)CC[C@H]2[C@@H]3CCC4=CC(=O)CC[C@@H]4[C@H]3CC[C@@]21CC; Compound metabolized
28. CN(C)CCOC(c1ccc(Cl)cc1)c1ccccn1.O=C(O)/C=C\C(=O)O (configuration not stated) [CARBINOXAMINE MALEATE]; Compound NOT metabolized
29. N#Cc1ccc2c(c1)N(CCCN1CCC(O)CC1)c1ccccc1S2; Compound metabolized
30. CCCCC(=O)O[C@]1(C(=O)CO)[C@@H](C)C[C@H]2[C@@H]3CCC4=CC(=O)C=C[C@]4(C)[C@@]3(F)[C@@H](O)C[C@@]21C [BETAMETHASONE VALERATE]; Compound metabolized
31. CCN(CC)CCCC(C)Nc1c2ccc(Cl)cc2nc2ccc(OC)cc12 (configuration not stated); Compound NOT metabolized
32. CN1CCOC(c2ccccc2)c2ccccc2C1 (configuration not stated); Compound NOT metabolized
